- TGT: T1, recombinant human IL-31 (hIL-31, BHK produced, A1277F, zcytor17lig CEE) (human, UniProt Q6EBC2 24-164)
- T1 construct: also called recombinant hIL-31
- T1 sequence: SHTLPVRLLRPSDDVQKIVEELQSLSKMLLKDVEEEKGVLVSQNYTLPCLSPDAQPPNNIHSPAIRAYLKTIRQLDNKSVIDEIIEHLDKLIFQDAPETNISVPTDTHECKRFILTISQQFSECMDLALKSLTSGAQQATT
- PROTOCOL_DESCRIPTION: SPR (Biacore), mAb amine-coupled to CM5 chip, hIL-31 injected
# Kd listing for each entry below
Report the value in nM with no unit label.

Below: 2 binders and their reported Kd.
humanized 292.12.3.1 construct clone 9 (12VH1-gly + HC(fback)) (antibody, human IgG4, V domains shown, also called 09) VH: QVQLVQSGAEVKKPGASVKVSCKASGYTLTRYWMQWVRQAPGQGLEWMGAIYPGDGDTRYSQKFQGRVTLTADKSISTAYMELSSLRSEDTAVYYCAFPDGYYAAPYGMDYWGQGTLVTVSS VL: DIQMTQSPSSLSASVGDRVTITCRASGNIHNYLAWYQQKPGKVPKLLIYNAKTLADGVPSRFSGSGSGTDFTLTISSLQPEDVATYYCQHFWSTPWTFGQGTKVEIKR: 2.1
humanized 292.12.3.1 construct clone 14 (12VH1-gly + HC(M69L, R71A, T73K, V78A, R94F) + LC(fback)) (antibody, human IgG4, V domains shown) VH: QVQLVQSGAEVKKPGASVKVSCKASGYTFTRYWMQWVRQAPGQGLEWMGAIYPGDGDTRYSQKFQGRVTLTADKSISTAYMELSSLRSEDTAVYYCAFPDGYYAAPYGMDYWGQGTLVTVSS VL: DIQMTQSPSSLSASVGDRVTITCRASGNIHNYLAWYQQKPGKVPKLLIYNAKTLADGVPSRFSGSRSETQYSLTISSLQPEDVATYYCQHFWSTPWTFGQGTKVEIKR: 12.5

# evaluate next
Prompt line: State the recorded Kd for this entry: humanized 292.12.3.1 construct clone 32 (12VH1-gly + HC(F29L, R71A, V78A, R94F) + LC(F71Y)) (antibody, human IgG4, V domains shown) VH: QVQLVQSGAEVKKPGASVKVSCKASGYTLTRYWMQWVRQAPGQGLEWMGAIYPGDGDTRYSQKFQGRVTMTADTSISTAYMELSSLRSEDTAVYYCAFPDGYYAAPYGMDYWGQGTLVTVSS VL: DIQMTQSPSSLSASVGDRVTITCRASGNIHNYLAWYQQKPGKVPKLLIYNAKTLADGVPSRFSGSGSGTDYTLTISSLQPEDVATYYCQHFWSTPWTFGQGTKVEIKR
Response line: 0.64
